Experiment: Biodistribution in ICR mice after an iv injection
Format: in vivo
Settings: Blood, 1 hr after iv injection
Description: Biodistribution in ICR Mice After an iv Injection of [^18F][4-(6-{2-[2-(2-Fluoro-ethoxy)-ethoxy]-ethoxy}-naphthalen-2-yl)-phenyl]-methyl-amine in 1% EtOH/0.1% BSA in Water (% dose/organ, avg of 3 mice±SD) (% dose/g, avg of 3 mice±SD) Biodistribution in ICR Mice After an iv Injection of [^18F]19a in 3% EtOH/0.1% BSA in Water Biodistribution in ICR Mice After an iv Injection of [^18F]34a in 5% EtOH/0.1% BSA in Water […]
readout type: % dose/g (% dose/g)

Answered examples (2):
>  <compound>
CNc1ccc(-c2ccc3nc(OCCOCCOCC[18F])ccc3c2)cc1 [[^18F]34a]

>  <% dose/g (% dose/g)>
1.61

$$$$
>  <compound>
CNc1ccc(-c2ccc3cc(OCCOCCOCCF)ccc3c2)cc1

>  <% dose/g (% dose/g)>
1.41

$$$$

1. CNc1ccc2cc(-c3ccc(OCCOCCOCC[18F])cc3)ccc2c1 [[^18F]19a]
2. CN(C)c1ccc(-c2ccc3nc(OCCOCCOCC[18F])ccc3c2)cc1 [[^18F]32a]
**Query** Which record shows the lower % dose/g: the first, 1 , or the second, 2 ? Label of pick, please.
**Result** 2
